# Test system: KRAS PDC tumor spheroids (HUVEC+MSC), viability
# Assay Overview: Anticancer human tumor 254851-301-R-J1-PDC patient-derived colon carcinoma cell line growth inhibition [KRAS2]
# Particulars: curve of first compound; second compound 0.316 µM
pIC50: −log10 of the molar value.
Returns yes if the recorded pIC50 is greater than or equal to 6, and no otherwise.

Q. In plain terms: is recorded pIC50 at least 6 for CCN1CCN(Cc2ccc(Nc3ncc(F)c(-c4cc(F)c5nc(C)n(C(C)C)c5c4)n3)nc2)CC1 + C=CC(=O)N1CCN(c2nc(OCC3CCCN3C)nc3c2CCN(c2cccc4cccc(C)c24)C3)CC1CC#N ?
A. yes

Q. In plain terms: is recorded pIC50 at least 6 for CCNC(=O)CC1N=C(c2ccc(Cl)cc2)c2cc(OC)ccc2-n2c(C)nnc21 (stereo not given) + C=CC(=O)N1CCN(c2nc(=O)n(-c3c(C)ccnc3C(C)C)c3nc(-c4c(O)cccc4F)c(F)cc23)C(C)C1 ?
A. no

Q. In plain terms: is recorded pIC50 at least 6 for CC1OCC2(CCN(c3cnc(Sc4ccnc(N)c4Cl)c(N)n3)CC2)C1N (stereo not given) + C=CC(=O)N1CCN(c2nc(=O)n(-c3c(C)ccnc3C(C)C)c3nc(-c4c(O)cccc4F)c(F)cc23)C(C)C1 ?
A. no

====

# System: KRAS PDC tumor spheroids (HUVEC+MSC), viability
# Assay Overview: Anticancer human tumor 254851-301-R-J1-PDC cell line growth inhibition [KRAS2]; active means viability on the fitted dose curve at most 10% of control; inactive means the rest;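 further: spheroids exposed to compounds for seven days before readout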
# Particulars: second compound 10 µM; first compound 1 µM
# Source text: Multicellular complex tumor spheroid response to RAS pathway inhibitors in combination with a targeted agents in patient-derived cell lines with oncogenic KRAS variants from multiple cancer types A high-throughput screen of multi-cell type tumor spheroids was designed to identify active combinations of targeted small molecules and KRAS pathway inhibitors. […] Compounds. […] If the clinical Cmax for an agent had not been determined, the highest concentration tested was 10 microM. […]
Select the matching outcome among active, inactive

Completed entries (count: 2):
Compound	Assigned Class
Cn1nccc1Nc1nccc(-c2cc3c(s2)C(C)(C)N(CCN2CCOCC2)C3=O)n1 + CNCc1ccccc1-c1csc(C(C)Nc2nc(C)nc3cc(OC)c(OC)cc23)c1	active
CCN1CCN(Cc2ccc(Nc3ncc(F)c(-c4cc(F)c5nc(C)n(C(C)C)c5c4)n3)nc2)CC1 + CNCc1ccccc1-c1csc(C(C)Nc2nc(C)nc3cc(OC)c(OC)cc23)c1	active

Q. Short answer needed: outcome of this test for COc1cc2nccc(Oc3ccc(NC(=O)C4(C(=O)Nc5ccc(F)cc5)CC4)cc3)c2cc1OC + C=CC(=O)N1CCN(c2nc(=O)n(-c3c(C)ccnc3C(C)C)c3nc(-c4c(O)cccc4F)c(F)cc23)C(C)C1 ?
A. inactive

====

Measured pIC50 accompanies every entry in the list below.
# Test system: KRAS PDC tumor spheroids (HUVEC+MSC), viability
# Assay Overview: Anticancer human tumor 254851-301-R-J1-PDC cell line growth inhibition [KRAS2];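 further: spheroids exposed to compounds for seven days before readout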
# Particulars: curve of first compound; second compound 10 µM
pIC50: −log10 of the molar value.

Below, each entry is followed by its recorded pIC50 result.
Molecule	pIC50
COC(=O)c1ccc2c(C(=Nc3ccc(N(C)C(=O)CN4CCN(C)CC4)cc3)c3ccccc3)c(O)[nH]c2c1 + COc1cc2nc(C)nc(NC(C)c3cc(N)cc(C(F)(F)F)c3)c2cc1OC1CCOC1	5.91
O=C(c1cc(Cc2n[nH]c(=O)c3ccccc23)ccc1F)N1CCN(C(=O)C2CC2)CC1 + COc1cc2nc(C)nc(NC(C)c3cc(N)cc(C(F)(F)F)c3)c2cc1OC1CCOC1	< 5.00

Q. pIC50 for CC1OCC2(CCN(c3cnc(Sc4ccnc(N)c4Cl)c(N)n3)CC2)C1N (stereo not drawn) + COc1cc2nc(C)nc(NC(C)c3cc(N)cc(C(F)(F)F)c3)c2cc1OC1CCOC1 ?
A. < 5.00

====

# System: KRAS PDC tumor spheroids (HUVEC+MSC), viability
# Assay Overview: Anticancer human tumor 254851-301-R-J1-PDC cell line growth inhibition [KRAS2];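 further: spheroids exposed to compounds for seven days before readout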
# Particulars: curve of first compound; second compound 0.0316 µM
Measured IC50 accompanies every entry in the list below.
Hi! Could you send only the number? It should be in nM, unit omitted.

Compound	System Under Test	Measurement Name	Endpoint Value
CC(=O)OC12COC1CC(O)C1(C)C(=O)C(O)C3=C(C)C(OC(=O)C(O)C(NC(=O)OC(C)(C)C)c4ccccc4)CC(O)(C(OC(=O)c4ccccc4)C21)C3(C)C (stereo not given) + C=CC(=O)N1CCN(c2nc(OCC3CCCN3C)nc3c2CCN(c2cccc4cccc(C)c24)C3)CC1CC#N	KRAS PDC tumor spheroids (HUVEC+MSC), viability	IC50	206
CC1COCCN1c1cc(-c2ccnn2C)c2ccnc(-c3ccn[nH]3)c2n1 (stereo not given) + C=CC(=O)N1CCN(c2nc(OCC3CCCN3C)nc3c2CCN(c2cccc4cccc(C)c24)C3)CC1CC#N	KRAS PDC tumor spheroids (HUVEC+MSC), viability	IC50	207
CC(=O)Nc1cccc(-n2c(=O)n(C3CC3)c(=O)c3c(Nc4ccc(I)cc4F)n(C)c(=O)c(C)c32)c1 + C=CC(=O)N1CCN(c2nc(OCC3CCCN3C)nc3c2CCN(c2cccc4cccc(C)c24)C3)CC1CC#N	KRAS PDC tumor spheroids (HUVEC+MSC), viability	IC50	5.65

Continue with the compound presented below.
Q. IC50 for CC(C)n1nc(-c2ccc3oc(N)nc3c2)c2c(N)ncnc21 + C=CC(=O)N1CCN(c2nc(OCC3CCCN3C)nc3c2CCN(c2cccc4cccc(C)c24)C3)CC1CC#N ?
A. 15.3

====

# Test system: KRAS PDC tumor spheroids (HUVEC+MSC), viability
# Assay Overview: Anticancer human tumor 254851-301-R-J1-PDC cell line growth inhibition [KRAS2];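 further: spheroids exposed to compounds for seven days before readout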;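 on viability, T/C: 100% = DMSO vehicle control luminescence of the spheroids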
# Particulars: compound 0.00316 µM; stronger effect = lower value
Measurement Name: viability, T/C

Below, each entry is followed by its recorded viability, T/C result.
> print(dat)
                              smiles.string  measurement.name            endpoint.value
1  CC(=O)Nc1cccc(-n2c(=O)n(C3CC3)c(=O)c3c(Nc4ccc(I)cc4F)n(C)c(=O)c(C)c32)c1    viability, T/C  75.8% [middle of 5 runs]
2  CN(C)C/C=C/C(=O)Nc1cc2c(Nc3ccc(F)c(Cl)c3)ncnc2cc1O[C@H]1CCOC1    viability, T/C   104% [middle of 5 runs]
3  Cn1ncnc1[C@H]1c2n[nH]c(=O)c3cc(F)cc(c23)N[C@@H]1c1ccc(F)cc1    viability, T/C  99.2% [middle of 5 runs]
4  CCN1CCN(Cc2ccc(Nc3ncc(F)c(-c4cc(F)c5nc(C)n(C(C)C)c5c4)n3)nc2)CC1    viability, T/C  98.6% [middle of 5 runs]

Q. viability, T/C for CC(C)n1nc(-c2ccc3oc(N)nc3c2)c2c(N)ncnc21 ?
A. 92.6% [middle of 5 runs]

====

# System: KRAS PDC tumor spheroids (HUVEC+MSC), viability
# Assay Overview: Anticancer human tumor 254851-301-R-J1-PDC cell line growth inhibition [KRAS2];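 further: spheroids exposed to compounds for seven days before readout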;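 on viability, T/C: 100% = DMSO vehicle control luminescence of the spheroids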
# Particulars: second compound 0.1 µM; first compound 0.001 µM; stronger effect = lower value
Measured viability, T/C accompanies every entry in the list below.
Hi! Could you send only the number? It should be in %, unit omitted.

Compound	viability, T/C / %
CC(C)n1nc(-c2ccc3oc(N)nc3c2)c2c(N)ncnc21 + CNCc1ccccc1-c1csc(C(C)Nc2nc(C)nc3cc(OC)c(OC)cc23)c1	98.6
Cn1ncnc1[C@H]1c2n[nH]c(=O)c3cc(F)cc(c23)N[C@@H]1c1ccc(F)cc1 + C=CC(=O)N1CCN(c2nc(=O)n(-c3c(C)ccnc3C(C)C)c3nc(-c4c(O)cccc4F)c(F)cc23)C(C)C1	99.8
CC(C)n1nc(-c2ccc3oc(N)nc3c2)c2c(N)ncnc21 + CC1OCC2(CCN(c3cnc(Sc4ccnc(N)c4Cl)c(N)n3)CC2)C1N	98.2
CN(C)C/C=C/C(=O)Nc1cc2c(Nc3ccc(F)c(Cl)c3)ncnc2cc1O[C@H]1CCOC1 + C=CC(=O)N1CCN(c2nc(=O)n(-c3c(C)ccnc3C(C)C)c3nc(-c4c(O)cccc4F)c(F)cc23)C(C)C1	103
Cn1ncnc1[C@H]1c2n[nH]c(=O)c3cc(F)cc(c23)N[C@@H]1c1ccc(F)cc1 + COc1cc2nc(C)nc(NC(C)c3cc(N)cc(C(F)(F)F)c3)c2cc1OC1CCOC1	95.6

Q. viability, T/C for CN(C)C/C=C/C(=O)Nc1cc2c(Nc3ccc(F)c(Cl)c3)ncnc2cc1O[C@H]1CCOC1 + CNCc1ccccc1-c1csc(C(C)Nc2nc(C)nc3cc(OC)c(OC)cc23)c1 ?
A. 105

Q. viability, T/C for CC(=O)Nc1cccc(-n2c(=O)n(C3CC3)c(=O)c3c(Nc4ccc(I)cc4F)n(C)c(=O)c(C)c32)c1 + CNCc1ccccc1-c1csc(C(C)Nc2nc(C)nc3cc(OC)c(OC)cc23)c1 ?
A. 87.7

Q. viability, T/C for CN(C)C/C=C/C(=O)Nc1cc2c(Nc3ccc(F)c(Cl)c3)ncnc2cc1O[C@H]1CCOC1 + CC1OCC2(CCN(c3cnc(Sc4ccnc(N)c4Cl)c(N)n3)CC2)C1N ?
A. 106
